Target: T1, human C1s (human, UniProt P09871 16-688)
T1 construct: Analyte in the Biacore assays; also called hC1s; serum-derived human C1s (CompTech)
T1 sequence: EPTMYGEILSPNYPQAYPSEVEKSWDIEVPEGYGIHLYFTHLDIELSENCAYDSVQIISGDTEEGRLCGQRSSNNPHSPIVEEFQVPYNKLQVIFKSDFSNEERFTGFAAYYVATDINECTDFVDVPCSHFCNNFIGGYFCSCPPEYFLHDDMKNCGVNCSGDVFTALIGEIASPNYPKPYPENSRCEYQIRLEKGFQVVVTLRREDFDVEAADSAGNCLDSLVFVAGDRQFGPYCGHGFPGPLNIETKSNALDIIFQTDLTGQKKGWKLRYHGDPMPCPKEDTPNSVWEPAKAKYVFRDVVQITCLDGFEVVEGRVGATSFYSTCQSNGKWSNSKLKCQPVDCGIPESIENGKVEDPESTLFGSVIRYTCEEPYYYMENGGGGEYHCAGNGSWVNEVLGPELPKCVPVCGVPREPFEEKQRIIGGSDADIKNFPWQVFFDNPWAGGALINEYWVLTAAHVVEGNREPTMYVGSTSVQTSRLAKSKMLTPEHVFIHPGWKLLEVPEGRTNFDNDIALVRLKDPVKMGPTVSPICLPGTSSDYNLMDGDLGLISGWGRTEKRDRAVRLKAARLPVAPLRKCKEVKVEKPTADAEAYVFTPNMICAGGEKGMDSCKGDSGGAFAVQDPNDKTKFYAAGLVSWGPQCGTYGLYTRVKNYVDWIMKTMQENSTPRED
Experiment: SPR (Biacore T200, 37C), Ab captured on protein A/G; pH 5.8, 3 uM Ca
Recorded endpoint: Kd (nM)
Express the result in nM but write the number alone.

Examples with their reported Kd follow.
C1_IPN92H0033-SG4GK/IPN93L0072-SK1 (antibody, human IgG4 S228P, kappa, name in Kabat numbering, V domains shown, VL substitutions from IPN009VK3, Kabat numbering; also called IPN92H0033/IPN93L0072) VH: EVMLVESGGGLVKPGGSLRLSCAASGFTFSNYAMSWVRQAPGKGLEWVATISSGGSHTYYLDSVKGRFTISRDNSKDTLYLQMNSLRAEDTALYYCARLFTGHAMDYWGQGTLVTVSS VL: QIVLTQSPATLSLSPGERATLSCTASSSVKSSYLHWYQQKPGKAPKLWIYSTSNLASGVPSRFSGSGSGTDYTLTISSLQPEDFATYYCHQYYRLHPITFGQGTKLEIKR ... 5.72
C1_IPN92H0080-SG4GK/IPN93L0024-SK1 (antibody, human IgG4 S228P, kappa, name in Kabat numbering, V domains shown, Substitutions from IPN009VH2, Kabat numbering; also called IPN92H0080/IPN93L0024) VH: EVMLVESGGGLVKPGGSLRLSCAASGFTFSNRAMSWVRQAPGKGLEWVATISSGGSHTYYLDSVKGRFTISRDNSKDTLYLQMNSLRAEDTALYYCARLFTGHAMDYWGQGTLVTVSS VL: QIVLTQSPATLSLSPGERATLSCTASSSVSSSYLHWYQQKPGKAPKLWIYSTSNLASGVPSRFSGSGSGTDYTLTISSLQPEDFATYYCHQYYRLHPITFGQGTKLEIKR ... 9.09
C1_IPN92H0261-SG4GK/IPN93L0091-SK1 (antibody, human IgG4 S228P, kappa, name in Kabat numbering, V domains shown, Substitutions from IPN009VH2 / IPN009VK3, Kabat numbering; also called IPN92H0261/IPN93L0091) VH: EVMLVESGGGLVKPGGSLRLSCAASGFTFSNYAMSWVRQAPGKGLEWVATISSGGSHTYELDSVKGRFTISRDNSKDTLYLQMNSLRAEDTALYYCARLFTKHAMDYWGQGTLVTVSS VL: QIVLTQSPATLSLSPGERATLSCTASSSVSSSRLHWYQQKPGKAPKLWIYSTSNLASGVPSRFSGSGSGTDYTLTISSLQPEDFATYYCHQYYRLHPITFGQGTKLEIKR ... 12.1
C1_IPN92H0033-SG4GK/IPN93L0090-SK1 (antibody, human IgG4 S228P, kappa, name in Kabat numbering, V domains shown, VL substitutions from IPN009VK3, Kabat numbering; also called IPN92H0033/IPN93L0090) VH: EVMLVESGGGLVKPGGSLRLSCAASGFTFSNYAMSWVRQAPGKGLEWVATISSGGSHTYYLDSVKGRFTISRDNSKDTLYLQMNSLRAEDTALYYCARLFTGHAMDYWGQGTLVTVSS VL: QIVLTQSPATLSLSPGERATLSCTASSSVSSSKLHWYQQKPGKAPKLWIYSTSNLASGVPSRFSGSGSGTDYTLTISSLQPEDFATYYCHQYYRLHPITFGQGTKLEIKR ... 7.18

Next up:
Exercise: GET /values?readout=Kd&item= C1_IPN92H0231-SG4GK/IPN93L0024-SK1 (antibody, human IgG4 S228P, kappa, name in Kabat numbering, V domains shown, Substitutions from IPN009VH2, Kabat numbering; also called IPN92H0231/IPN93L0024) VH: EVMLVESGGGLVKPGGSLRLSCAASGFTFSNYAMSWVRQAPGKGLEWVATISSGGSHTYYLDSVKGRFTISRDNSKDTLYLQMNSLRAEDTALYYCARLFTKHAMDYWGQGTLVTVSS VL: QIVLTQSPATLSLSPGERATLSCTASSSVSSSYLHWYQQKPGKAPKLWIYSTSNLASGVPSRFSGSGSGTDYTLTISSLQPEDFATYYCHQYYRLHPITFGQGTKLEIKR
Solution: 5.28
